tested-target: Coagulation factor X (Bos taurus, UniProt P00743)
Sequence (P00743 41-180 limits assumed): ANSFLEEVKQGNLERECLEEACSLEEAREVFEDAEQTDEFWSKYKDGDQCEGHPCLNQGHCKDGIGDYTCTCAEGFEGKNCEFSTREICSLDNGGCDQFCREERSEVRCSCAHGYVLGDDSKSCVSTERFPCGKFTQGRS
Sequence (P00743 234-492 limits assumed): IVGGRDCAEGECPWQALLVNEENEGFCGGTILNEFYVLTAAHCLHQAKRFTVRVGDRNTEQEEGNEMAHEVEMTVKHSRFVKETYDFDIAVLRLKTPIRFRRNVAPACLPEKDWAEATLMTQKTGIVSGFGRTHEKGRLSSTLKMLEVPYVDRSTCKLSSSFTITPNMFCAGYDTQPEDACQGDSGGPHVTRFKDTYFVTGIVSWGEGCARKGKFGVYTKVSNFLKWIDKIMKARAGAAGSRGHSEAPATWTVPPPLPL
assay-protocol: In vitro evaluation of inhibitory activity against Coagulation factor X in prothrombinase complex
measurement-label: Ki (nM)
Just the number please, in nM, no unit attached.

COc1ccc2ccc(S(=O)(=O)N[C@H]3CCN(Cc4cc5c(N)nccc5cc4N)C3=O)cc2c1
80
COc1ccc2ccc(S(=O)(=O)NC3CCN(Cc4ccc5nc(N)ccc5c4)C3=O)cc2c1 (stereo not given)
1200

For the next question, use this compound.
### Prompt Form: Entry = N=C(N)c1cccc(CN2CC[C@H](NS(=O)(=O)c3cc4ncccc4s3)C2=O)c1 | System = Coagulation factor X (Bos taurus, UniProt P00743) | Ki = ____
### Response 26

---

Let's look at some molecules and their measured pKi.
tested-target: Prothrombin (Homo sapiens, UniProt P00734)
assay-protocol: In vitro evaluation of inhibitory activity against Coagulation factor II in prothrombinase complex
pKi: −log10 of the molar value.

Record excerpt, results attached:
COc1ccc2ccc(S(=O)(=O)NC3CCN(Cc4ccc5nc(N)ccc5c4)C3=O)cc2c1 (stereo not given)
< 5.40
COc1ccc2ccc(S(=O)(=O)N(C)[C@H]3CCN(Cc4ccc5ncnc(N)c5c4)C3=O)cc2c1
< 5.40
COc1ccc2ccc(S(=O)(=O)N[C@H]3CCN(Cc4ccc5ccnc(N)c5c4)C3=O)cc2c1
5.87
COc1ccc2ccc(S(=O)(=O)NC3CCN(Cc4cc5c(N)nccc5s4)C3=O)cc2c1 (stereo not given)
~5.40

For the next question, use this molecule.
### Prompt Sample COc1ccc2ccc(S(=O)(=O)NC3CCN(Cc4ccc5ccc(N)nc5c4)C3=O)cc2c1 (stereo not given) — what was its pKi?
### Response ~5.40

---

assay-protocol: Maximum concentration in plasma was reported at 0.5 hour
Type: ADME, organism-based
condition-context: read-out: CPmax
measurement-label: Cmax (µM)
Just the number please, in µM, no unit attached.

### Prompt Sample COc1ccc2ccc(S(=O)(=O)N(C)[C@H]3CCN(Cc4csc(C(=N)N)c4)C3=O)cc2c1 — what was its Cmax?
### Response 3.1

---

tested-target: Coagulation factor X (Bos taurus, UniProt P00743)
assay-protocol: In vitro evaluation of inhibitory activity against Coagulation factor X in prothrombinase complex
measurement-label: pKi
Please express pKi as -log10 of the molar concentration.

Record excerpt, results attached:
COc1ccc2ccc(S(=O)(=O)N[C@H]3CCN(Cc4cc(C(=N)N)ccc4N)C3=O)cc2c1
8.22
COc1ccc2ccc(S(=O)(=O)N[C@H]3CCN(Cc4cc5c(N)nccc5cc4OC)C3=O)cc2c1
6.05

### Prompt Sample COc1ccc2ccc(S(=O)(=O)N(C)[C@H]3CCN(Cc4ccc5ncnc(N)c5c4)C3=O)cc2c1 — what was its pKi?
### Response 5.80

### Prompt Sample COc1ccc2ccc(S(=O)(=O)NC3CCN(Cc4cc5c(N)nccc5s4)C3=O)cc2c1 (stereo not given) — what was its pKi?
### Response 6.60

### Prompt Sample COc1ccc2ccc(S(=O)(=O)NC3CCN(Cc4ccc5ccc(N)nc5c4)C3=O)cc2c1 (stereo not given) — what was its pKi?
### Response 6.43

---

assay-protocol: Maximum concentration in plasma was reported at 2 hour
Type: ADME, organism-based
condition-context: read-out: CPmax
measurement-label: Cmax (nM)
Just the number please, in nM, no unit attached.

### Prompt Sample Nc1nccc2ccc(CN3CC[C@H](NS(=O)(=O)c4cc5ncccc5s4)C3=O)cc12 — what was its Cmax?
### Response 2700

Every entry's value here was drawn from ChEMBL document CHEMBL1132509.
